The values you see were collected from ChEMBL document CHEMBL1134771.

Test system: FM3A
Assay: in vitro cytotoxicity against mouse mammary tumor in cell culture.
Type: functional, cell-based
Endpoint: pEC50
Bear in mind: pEC50 is minus log10 of a mol/L concentration; give just that figure.

Example entries and their recorded answers appear below.
C1CCCCCC2(CCCCC1)OOCCCCCCCCOO2 = 4.54
C1COOC2(OOC1)C1CC3CC(C1)CC2C3 = 4.24
CCCCCCC1(CCCCCC)OOCCCOO1 = 4.72
C1CCCCCC2(CCCCC1)OOCCCOO2 = 5.10
CCCCCC1(CCCCC)OOCCCOO1 = 4.47

Query string: What value of pEC50 has been reported for the following compound? C1CCCCCC2(CCCCC1)OOCCCCOO2
Result string: 4.77
